The following compounds are shown together with reported k obs / 1 values.
Target: Neutrophil elastase (Homo sapiens) (UniProt P08246)
Sequence (whole entry): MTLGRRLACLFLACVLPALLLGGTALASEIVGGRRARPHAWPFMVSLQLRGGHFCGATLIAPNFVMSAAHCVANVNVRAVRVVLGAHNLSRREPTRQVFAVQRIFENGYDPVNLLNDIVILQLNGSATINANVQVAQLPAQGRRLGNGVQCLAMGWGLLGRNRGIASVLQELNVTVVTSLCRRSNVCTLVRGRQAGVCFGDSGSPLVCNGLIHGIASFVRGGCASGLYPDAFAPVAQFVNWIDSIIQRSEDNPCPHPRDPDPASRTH
Experiment: Inhibition of human leukocyte elastase(HLE) at 0.7-1.7 uM
readout-label: k obs / 1

1. CCCOc1oc(=O)c2cc(NC(=O)c3cccc([N+](=O)[O-])c3)ccc2c1Cl :: > 210000 M⁻¹ s⁻¹
2. CCCOc1oc(=O)c2cc(N/C(S)=N/c3ccccc3)ccc2c1Cl :: > 170000 M⁻¹ s⁻¹
3. CCCOc1oc(=O)c2cc(NC(=O)[C@H](Cc3ccccc3)NS(=O)(=O)c3ccc(C)cc3)ccc2c1Cl :: 33000 M⁻¹ s⁻¹
4. CCCOc1oc(=O)c2cc(NC(=O)Nc3ccccc3)ccc2c1Cl :: 140000 M⁻¹ s⁻¹
5. CCCOc1oc(=O)c2cc(N/C(S)=N/Cc3ccccc3)ccc2c1Cl :: > 130000 M⁻¹ s⁻¹
6. CCCOc1oc(=O)c2cc(NC(=O)CC(C)C)ccc2c1Cl :: > 220000 M⁻¹ s⁻¹
7. CCCOc1oc(=O)c2cc(NC(=O)[C@@H](NC(=O)OC(C)(C)C)C(C)C)ccc2c1Cl :: 64000 M⁻¹ s⁻¹
8. CCCOc1oc(=O)c2cc(NC(=O)CSC)ccc2c1Cl :: > 150000 M⁻¹ s⁻¹
9. CCCOc1oc(=O)c2cc(NC(C)=O)ccc2c1Cl :: > 190000 M⁻¹ s⁻¹
10. CCCOc1oc(=O)c2cc(NC(=O)OCC)ccc2c1Cl :: > 180000 M⁻¹ s⁻¹
11. CCCOc1oc(=O)c2cc(NC(=O)CCc3ccccc3)ccc2c1Cl :: > 250000 M⁻¹ s⁻¹
12. CCCOc1oc(=O)c2cc(NC(=O)CCC)ccc2c1Cl :: > 120000 M⁻¹ s⁻¹
13. CCCOc1oc(=O)c2cc(NC(=O)NCC)ccc2c1Cl :: > 280000 M⁻¹ s⁻¹

----------
Experiment: Half-life for hydrolysis was determined from kinetic constant.
Assay type: ADME
Label rule, in plain words: half-life of 5 h and up is yes, under 5 h is no.

1) CCCOc1oc(=O)c2cc(N)ccc2c1Cl :: no
2) CCOc1oc(=O)c2cc(N)ccc2c1Cl :: no
3) C[C@@H](OC(=O)Nc1ccccc1)C(=O)Nc1ccc2c(Cl)c(OCCBr)oc(=O)c2c1 :: yes
4) C[C@@H](NC(=O)Nc1ccc2c(Cl)c(OCCBr)oc(=O)c2c1)c1cccc2ccccc12 :: yes
5) O=C1CC(c2ccccc2)CC(=O)N1c1ccc2c(Cl)c(OCCBr)oc(=O)c2c1 :: yes
6) O=C(O)CCC(=O)N[C@@H](Cc1ccccc1)C(=O)Nc1ccc2c(Cl)c(OCCBr)oc(=O)c2c1 :: no
7) CC(C)(C)OC(=O)N[C@@H](Cc1c[nH]c2ccccc12)C(=O)Nc1ccc2c(Cl)c(OCCBr)oc(=O)c2c1 :: yes
8) COc1oc(=O)c2cc(N)ccc2c1Cl :: no
9) Nc1ccc2c(Cl)c(OCCBr)oc(=O)c2c1 :: no
10) Nc1ccc2c(Cl)c(OCCCBr)oc(=O)c2c1 :: no

----------
Target: Chymotrypsin-like elastase family member 2A (Sus scrofa) (UniProt P08419)
Sequence (whole entry): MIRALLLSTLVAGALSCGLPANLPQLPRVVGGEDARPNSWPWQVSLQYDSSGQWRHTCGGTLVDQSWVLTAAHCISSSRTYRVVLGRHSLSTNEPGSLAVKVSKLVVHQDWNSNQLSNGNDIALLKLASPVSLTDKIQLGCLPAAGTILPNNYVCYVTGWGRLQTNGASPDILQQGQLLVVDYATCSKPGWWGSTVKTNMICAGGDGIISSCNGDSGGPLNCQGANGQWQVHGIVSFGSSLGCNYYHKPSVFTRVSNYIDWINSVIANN
Experiment: The second order inactivation rate constant was expressed as inhibition of porcine pancreatic elastase (PPE). Inhibitor concentrations were 34-56 uM
Could you mark each record yes (1) if its k obs / 1 falls strictly under 200 M⁻¹ s⁻¹, and no (0) if it equals or exceeds it?

1. CCCOc1oc(=O)c2cc(N/C(S)=N/Cc3ccccc3)ccc2c1Cl :: yes (1)
2. CCCOc1oc(=O)c2cc(NC(=O)Nc3ccccc3)ccc2c1Cl :: no (0)
3. CCCOc1oc(=O)c2cc(NC(=O)NCC)ccc2c1Cl :: no (0)
4. CCCOc1oc(=O)c2cc(NC(=O)[C@H](Cc3ccccc3)NS(=O)(=O)c3ccc(C)cc3)ccc2c1Cl :: no (0)
5. CCCOc1oc(=O)c2cc(N/C(S)=N/c3ccccc3)ccc2c1Cl :: yes (1)

----------
Attribute: k obs / 1
Target: Neutrophil elastase (Homo sapiens)
Assay: Second order inactivation rate constant for inhibition of human leukocyte elastase.
readout-label: k obs / 1

1. COc1oc(=O)c2cc(N)ccc2c1Cl :: 10000 M⁻¹ s⁻¹
2. COCCOc1oc(=O)c2cc(N)ccc2c1Cl :: 390 M⁻¹ s⁻¹
3. CC(C)Oc1oc(=O)c2cc(N)ccc2c1Cl :: 2000 M⁻¹ s⁻¹
4. Nc1ccc2c(Cl)c(OCCCBr)oc(=O)c2c1 :: 4000 M⁻¹ s⁻¹
5. CCOc1oc(=O)c2cc(N)ccc2c1Cl :: 9400 M⁻¹ s⁻¹
6. CCCOc1oc(=O)c2cc(N)ccc2c1Cl :: 54000 M⁻¹ s⁻¹
7. COCCOCCOc1oc(=O)c2cc(N)ccc2c1Cl :: 33 M⁻¹ s⁻¹
8. CC(C)COc1oc(=O)c2cc(N)ccc2c1Cl :: 2700 M⁻¹ s⁻¹

----------
Biological target: Neutrophil elastase (Homo sapiens) (UniProt P08246)
Sequence (whole entry): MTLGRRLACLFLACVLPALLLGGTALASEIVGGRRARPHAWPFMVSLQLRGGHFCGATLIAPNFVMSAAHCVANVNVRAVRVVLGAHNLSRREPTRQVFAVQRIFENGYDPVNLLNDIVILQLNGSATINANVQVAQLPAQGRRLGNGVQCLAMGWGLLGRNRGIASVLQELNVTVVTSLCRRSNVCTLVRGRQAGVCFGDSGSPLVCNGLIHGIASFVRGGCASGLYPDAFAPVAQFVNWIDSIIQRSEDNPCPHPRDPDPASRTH
Experiment: Inhibition of human leukocyte elastase.
Values of [I] greater than or equal to 6 µM map to label 1; values below map to label 0.

1) COCCOCCOc1oc(=O)c2cc(N)ccc2c1Cl :: label 1
2) Nc1ccc2c(Cl)c(OCCCBr)oc(=O)c2c1 :: label 0
3) CC(C)COc1oc(=O)c2cc(N)ccc2c1Cl :: label 1
4) CC(C)Oc1oc(=O)c2cc(N)ccc2c1Cl :: label 1
5) COCCOc1oc(=O)c2cc(N)ccc2c1Cl :: label 1
6) CCOc1oc(=O)c2cc(N)ccc2c1Cl :: label 0
7) CCCOc1oc(=O)c2cc(N)ccc2c1Cl :: label 0
8) Nc1ccc2c(Cl)c(OCCBr)oc(=O)c2c1 :: label 0

----------
Molecular target: Neutrophil elastase (Homo sapiens)
Sequence (whole entry): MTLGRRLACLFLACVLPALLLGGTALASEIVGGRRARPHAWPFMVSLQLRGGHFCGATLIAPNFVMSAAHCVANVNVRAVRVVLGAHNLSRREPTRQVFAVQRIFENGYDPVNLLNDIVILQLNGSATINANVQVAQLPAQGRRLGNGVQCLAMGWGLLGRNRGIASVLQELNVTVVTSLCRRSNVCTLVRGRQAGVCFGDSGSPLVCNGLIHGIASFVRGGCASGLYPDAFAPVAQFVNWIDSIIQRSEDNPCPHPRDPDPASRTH
Assay: The second order inactivation rate constant was expressed as inhibition of human leukocyte elastase (HLE). Inhibitor concentrations were 0.4-4 uM
Outcome: True for k obs / 1 of at least 80000 M⁻¹ s⁻¹; False for anything lower.

1) COc1oc(=O)c2cc(NC(=O)C(Cc3ccccc3)NC(=O)c3cccc(NC(=O)Nc4ccccc4)c3)ccc2c1Cl (configuration not stated) :: False
2) COc1oc(=O)c2cc(NC(=O)[C@H](Cc3ccccc3)NC(=O)c3ccccc3)ccc2c1Cl :: True
3) COc1oc(=O)c2cc(NC(=O)[C@H](Cc3ccccc3)NC(=O)c3cccc(C)c3)ccc2c1Cl :: True
4) COc1oc(=O)c2cc(NC(=O)[C@H](Cc3ccccc3)NC(=O)c3ccc([N+](=O)[O-])cc3)ccc2c1Cl :: True
5) COc1oc(=O)c2cc(NC(=O)C(Cc3ccccc3)NC(=O)c3ccc(NC(=O)Nc4ccccc4)cc3)ccc2c1Cl (configuration not stated) :: False
6) COc1oc(=O)c2cc(NC(=O)[C@H](Cc3ccccc3)NC(=O)c3ccc(C)cc3)ccc2c1Cl :: True
